Data origin: paper PMC6600545

- SYSTEM_TESTED: P. capsici α, β-tubulin
- ASSAY_EXPLANATION: ELISA binding affinity of phages displaying tubulin-binding peptides (anti-M13 antibody)
- Design: species or system Phytophthora capsici
- RUN_PARAMETERS: phage displaying the peptide, 5 μg tubulin per well, OD 450 nm
Peptide text beside a SMILES is read from it. * marks the point of attachment. FITC = O=C1OC2(c3ccc(O)cc3Oc3cc(O)ccc32)c2ccc(NC(=S)*)cc21
I'd appreciate it if you could supply Kd values for the items below.
I only need the number, in nM, no unit after it.

Value of measured Kd for the entry CC(=O)N[C@H](C(=O)N[C@@H](CC(N)=O)C(=O)N1CCC[C@H]1C(=O)N[C@@H](CCC(N)=O)C(=O)N[C@@H](C)C(=O)N[C@@H](CCCNC(=N)N)C(=O)N[C@@H](Cc1c[nH]c2ccccc12)C(=O)N[C@@H](Cc1c[nH]cn1)C(=O)N[C@@H](CCC(=O)O)C(=O)N[C@@H](Cc1ccc(O)cc1)C(=O)N[C@@H](CC(N)=O)C(=O)N[C@@H](Cc1ccccc1)C(=O)N[C@@H](CCCCNC(=S)Nc1ccc2c(c1)C(=O)OC21c2ccc(O)cc2Oc2cc(O)ccc21)C(N)=O)[C@@H](C)O [β_P1] (Ac-TNPQARWHEYNFK(FITC)-NH2) : 0.0419

Consider CC[C@H](C)[C@H](NC(C)=O)C(=O)N[C@H](C(=O)N[C@@H](CCSC)C(=O)N[C@@H](CO)C(=O)N[C@H](C(=O)N1CCC[C@H]1C(=O)N[C@@H](C)C(=O)N[C@@H](Cc1c[nH]cn1)C(=O)N[C@@H](CC(N)=O)C(=O)N[C@@H](C)C(=O)N[C@@H](CCCCN)C(=O)N[C@@H](CCC(=O)O)C(=O)N[C@@H](CCCCNC(=S)Nc1ccc2c(c1)C(=O)OC21c2ccc(O)cc2Oc2cc(O)ccc21)C(N)=O)C(C)C)[C@@H](C)O [α_P1] (Ac-ITMSVPAHNAKEK(FITC)-NH2) . Its measured Kd is 0.0342

Kd recorded for this compound, CC(=O)N[C@@H](CC(N)=O)C(=O)N[C@@H](Cc1c[nH]cn1)C(=O)N[C@@H](Cc1ccccc1)C(=O)N[C@H](C(=O)N1CCC[C@H]1C(=O)N[C@H](C(=O)N[C@@H](CO)C(=O)N[C@@H](CC(N)=O)C(=O)N[C@@H](CCCNC(=N)N)C(=O)N[C@@H](Cc1ccccc1)C(=O)N[C@@H](CC(N)=O)C(=O)N[C@@H](C)C(=O)N[C@@H](CCCCNC(=S)Nc1ccc2c(c1)C(=O)OC21c2ccc(O)cc2Oc2cc(O)ccc21)C(N)=O)[C@@H](C)O)C(C)C [α_P3] (Ac-NHFVPTSNRFNAK(FITC)-NH2) , is 0.12
